- Tested on: Mast/stem cell growth factor receptor Kit (Homo sapiens), P10721 [D816V]
- Sequence (P10721 whole entry D816V): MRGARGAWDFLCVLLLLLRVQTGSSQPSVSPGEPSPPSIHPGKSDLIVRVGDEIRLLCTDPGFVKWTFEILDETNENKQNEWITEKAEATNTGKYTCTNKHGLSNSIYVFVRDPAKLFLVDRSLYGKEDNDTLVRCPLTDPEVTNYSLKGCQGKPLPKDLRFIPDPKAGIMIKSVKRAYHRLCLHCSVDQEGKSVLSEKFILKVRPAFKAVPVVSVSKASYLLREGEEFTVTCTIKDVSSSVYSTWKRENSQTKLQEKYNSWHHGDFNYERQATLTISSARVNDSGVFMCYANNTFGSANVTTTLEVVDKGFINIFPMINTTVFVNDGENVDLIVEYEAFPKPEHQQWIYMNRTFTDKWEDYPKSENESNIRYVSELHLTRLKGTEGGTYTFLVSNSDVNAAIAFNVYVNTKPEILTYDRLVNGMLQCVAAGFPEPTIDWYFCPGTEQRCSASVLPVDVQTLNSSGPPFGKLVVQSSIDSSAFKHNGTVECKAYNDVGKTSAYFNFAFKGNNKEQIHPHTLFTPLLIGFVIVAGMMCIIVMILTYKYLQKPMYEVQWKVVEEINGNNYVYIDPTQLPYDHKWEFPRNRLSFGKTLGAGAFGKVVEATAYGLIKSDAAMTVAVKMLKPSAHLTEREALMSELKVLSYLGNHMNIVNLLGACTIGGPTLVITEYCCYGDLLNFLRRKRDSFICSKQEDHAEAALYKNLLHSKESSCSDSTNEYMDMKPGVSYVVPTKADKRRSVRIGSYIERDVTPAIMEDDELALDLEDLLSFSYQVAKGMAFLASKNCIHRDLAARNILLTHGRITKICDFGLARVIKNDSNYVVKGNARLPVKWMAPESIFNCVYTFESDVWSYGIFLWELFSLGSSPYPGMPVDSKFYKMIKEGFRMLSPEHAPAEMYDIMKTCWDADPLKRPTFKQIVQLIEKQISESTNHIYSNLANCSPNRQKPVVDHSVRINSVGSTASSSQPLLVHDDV
- assayConditions: at 0.1 µM
quantityName: inhibition (%)
Report as a plain number; the unit % is understood.

Consider the worked cases shown below.
# smi, testedOn, unitLabel, obsValue
rows = [
    ("OCc1ccc(-c2nc(-c3ccccn3)c(-c3ccc4c(c3)OCO4)[nH]2)cc1", "Mast/stem cell growth factor receptor Kit (Homo sapiens), P10721 [D816V]", "%", 4.26),
    ("COc1cccc(-n2ncc3c(N/N=C/c4ccc(C)cc4)ncnc32)c1", "Mast/stem cell growth factor receptor Kit (Homo sapiens), P10721 [D816V]", "%", 2.8),
    ("COc1cc2ncnc(Nc3ccc(C)c(O)c3)c2cc1OC", "Mast/stem cell growth factor receptor Kit (Homo sapiens), P10721 [D816V]", "%", 44),
    ("NC(=O)c1cccc(Nc2nccc(Nc3cccc(F)c3)n2)c1", "Mast/stem cell growth factor receptor Kit (Homo sapiens), P10721 [D816V]", "%", -0.14),
    ("CS(=O)(=O)CCNCc1nc(-c2ccc3ncnc(Nc4ccc(OCc5cccc(C(F)(F)F)c5)cc4)c3c2)cs1", "Mast/stem cell growth factor receptor Kit (Homo sapiens), P10721 [D816V]", "%", -0.14),
]

Turning to the following molecule.
## Input Could you tell me which inhibition is on file for CS(=O)(=O)Nc1cccc(-c2ccc3c(NC(=O)C4CC4)n[nH]c3c2)c1 ?
## Output 1.45
